Origin of measurements: the supplement of paper PMC11208160

assay: recombinant UMI read abundance after kanamycin selection (control-corrected) (log10(CPM+1)); higher = more efficient recombination; extreme values may be limits of the assay; sequences stand for … in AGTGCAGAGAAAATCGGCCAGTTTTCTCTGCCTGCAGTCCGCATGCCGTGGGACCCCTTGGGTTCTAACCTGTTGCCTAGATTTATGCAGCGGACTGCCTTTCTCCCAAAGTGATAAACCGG…AGGTTGGTTTCACT; site = the 11-nt donor;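 further: IS621 bridge recombinase in Escherichia coli cells against a fixed T5 target plasmid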
PROPERTY: recombinant UMI read abundance (log10)
Please reply with the value in numeric form only.

Here is how some sequences turned out for recombinant UMI read abundance (log10).
• TATTTCGCATGGACCGGTTTTCCCGGTAATCCGTATTTGTG (site TATTTTGCTCA) = 0.00403
• CGGAAGACATGGACCGGTTTTCCCGGTAATCCGTATTTGAA (site CGGAAGACTTT) = 2.24
• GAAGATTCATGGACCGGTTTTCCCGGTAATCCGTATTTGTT (site AAAGATTCTAA) = 1.45
• AATAAACCATGGACCGGTTTTCCCGGTAATCCGTATTTGTG (site AATAAACCTCA) = 0.00291
• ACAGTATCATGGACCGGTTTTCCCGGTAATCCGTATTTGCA (site ACAATATCTTC) = 0.00345

Now consider a different sequence.
Answer with reported recombinant UMI read abundance (log10) of AGATCATCATGGACCGGTTTTCCCGGTAATCCGTATTTGCT (site GGATCATCTAG)
0.911
